Some compounds, each annotated with its measured Ki.
- TEST_SYSTEM: rat TAAR1 (Rattus norvegicus, UniProt Q923Y9)
- Construct: expressed in transfected cells; host or cells: HEK293 (ATCC # CRL-1573), stably transfected with pIRESneo2 expression plasmid
- Sequence (Q923Y9 whole entry): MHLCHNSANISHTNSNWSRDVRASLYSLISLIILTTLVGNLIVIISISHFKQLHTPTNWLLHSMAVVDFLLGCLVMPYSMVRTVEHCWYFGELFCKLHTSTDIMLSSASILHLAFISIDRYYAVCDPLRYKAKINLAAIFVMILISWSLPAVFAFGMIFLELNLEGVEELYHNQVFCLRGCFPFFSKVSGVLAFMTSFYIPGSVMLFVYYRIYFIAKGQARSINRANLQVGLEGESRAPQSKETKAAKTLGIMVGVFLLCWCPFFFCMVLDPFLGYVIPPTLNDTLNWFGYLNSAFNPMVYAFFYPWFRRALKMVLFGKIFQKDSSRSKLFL
- ASSAY_PROCEDURE: TAAR1 radioligand binding with [3H]-rac-2-(1,2,3,4-tetrahydro-1-naphthyl)-2-imidazoline, membranes of stably transfected HEK293 cells
- TEST_SETTINGS: second value of the cell, read-out: Ki (μM) mouse/rat: rat

Here is how some compounds turned out for Ki.
{"columns": ["COMPOUND", "VALUE"],
 "data": [
  ["NC1=N[C@@H](CCc2ccc(NC(=O)C3(c4ccc(Cl)cc4)CC3)cc2)CO1 [Example 53]", "0.0016 µM"],
  ["CC(C(=O)Nc1ccc(CC[C@H]2COC(N)=N2)cc1)c1cccc(C(F)(F)F)c1 (some centres unmarked) [Example 81]", "0.0022 µM"],
  ["NC1=N[C@@H](CCc2ccc(NC(=O)Nc3ccc(Cl)cc3)cc2)CO1 [Example 3]", "0.0003 µM"]
]}

Lookup: Look up Ki: NC1=N[C@@H](CCc2ccc(NC(=O)Nc3ccc(Cl)cn3)cc2)CO1 [Example 35]
Found: 0.0003 µM

Lookup: Look up Ki: CCc1nc(C(=O)Nc2ccc(CC[C@H]3COC(N)=N3)cc2)co1 [Example 217]
Found: 0.0025 µM

* * *

- TEST_SYSTEM: mouse TAAR1 (Mus musculus, UniProt Q923Y8)
- Construct: expressed in transfected cells; host or cells: HEK293 (ATCC # CRL-1573), stably transfected with pIRESneo2 expression plasmid
- Sequence (Q923Y8 whole entry): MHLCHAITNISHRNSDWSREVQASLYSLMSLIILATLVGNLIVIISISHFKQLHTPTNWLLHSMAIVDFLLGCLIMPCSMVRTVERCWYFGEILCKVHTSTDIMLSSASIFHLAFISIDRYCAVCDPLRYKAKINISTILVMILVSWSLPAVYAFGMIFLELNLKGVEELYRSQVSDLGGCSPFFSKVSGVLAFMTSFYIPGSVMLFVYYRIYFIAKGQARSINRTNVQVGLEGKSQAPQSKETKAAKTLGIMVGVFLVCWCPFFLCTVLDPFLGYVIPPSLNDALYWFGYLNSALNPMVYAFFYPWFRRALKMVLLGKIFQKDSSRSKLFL
- ASSAY_PROCEDURE: TAAR1 radioligand binding with [3H]-rac-2-(1,2,3,4-tetrahydro-1-naphthyl)-2-imidazoline, membranes of stably transfected HEK293 cells
- TEST_SETTINGS: first value of the cell, read-out: Ki (μM) mouse/rat: mouse
MEASUREMENT_TYPE: Ki (µM)
All answers are understood in µM, so give the number only.

{"columns": ["COMPOUND", "UNITS_LABEL", "Ki"],
 "data": [
  ["COC(C(=O)Nc1ccc(CC[C@H]2COC(N)=N2)cc1)c1ccc(Br)cc1 (stereo partly drawn) [Example 73]", "µM", 0.0026],
  ["Cc1ocnc1C(=O)Nc1ccc(CC[C@@H]2N=C(N)O[C@H]2C)cc1 [Example 222]", "µM", 0.0071],
  ["NC1=N[C@@H](CCc2ccc(NC(=O)c3ccnc(Cl)c3)cc2)CO1 [Example 173]", "µM", 0.0014],
  ["CCc1ccc(C(=O)Nc2ccc(CC[C@H]3COC(N)=N3)cc2)nc1 [Example 178]", "µM", 0.0004],
  ["Cc1ccc(C(=O)Nc2ccc(CC[C@H]3COC(N)=N3)cc2)cn1 [Example 98]", "µM", 0.0068],
  ["CC(C)c1sc(N(C)C)nc1C(=O)Nc1ccc(CC[C@H]2COC(N)=N2)cc1 [Example 189]", "µM", 0.0008],
  ["C[C@@H]1OC(N)=N[C@H]1CCc1ccc(NC(=O)c2ccc(C(F)(F)F)cn2)cc1 [Example 226]", "µM", 0.0011],
  ["C#Cc1ccc(NC(=O)c2ccc(CC[C@H]3COC(N)=N3)cc2)cc1 [Example 145]", "µM", 0.0018]
]}

Lookup: // map NC1=N[C@@H](CCc2ccc(NC(=O)Nc3ncc(Cl)cn3)cc2)CO1 [Example 151] to recorded Ki (system: mouse TAAR1 (Mus musculus, UniProt Q923Y8))
Found: 0.0071
